Would you kindly list pIC50 for each of these sequences?
# STUDY_SYSTEM: H-2K^b (Mus musculus, UniProt P01901)
# EXPERIMENT_DESCRIPTION: Peptide competition cytotoxicity assay
# Type: cell-based, murine
Ends that are not written are not given here.
To interpret pIC50, take it as minus log10 of a concentration measured in moles per litre.

Fill blank: measured pIC50 of the sequence LNKLFCQL is ____.
5.69

Fill blank: measured pIC50 of the sequence YSPPLNKLF is ____.
6.33

Fill blank: measured pIC50 of the sequence TYSPPLNKL is ____.
4.87

Fill blank: measured pIC50 of the sequence AIYKKSQHM is ____.
6.57
